Kindly state half-life for each of the entries shown.
# PROCEDURE_TEXT: PK analysis in male Sprague-Dawley rats
# Type: in vivo
# CONDITION_SUMMARY: male, Sprague-Dawley, plasma, iv; rat, i.v. 20 mg/kg, hydrochloride salt forms, mean ± SD n = 3; read-out: t1/2, app (converted)
# Method: Blood samples were centrifuged, supernatant plasma was removed, and plasma concentrations of compounds were determined by LC-MS. […] Studies were carried out by CDCO.
Answers are plain numbers, in h.

# MOL, half-life [h]
rows = [
    ("NC(=O)c1ccc(OCCNC[C@H](O)COc2ccc3c(c2)OC[C@@H](COCC2CC2)O3)cc1", 2),
]

Shift focus to the following entry.
Query: Tell me its half-life given O=C1NCc2cc(OCCNC[C@H](O)COc3ccc4c(c3)OC[C@@H](COCC3CC3)O4)ccc21 as the entry.
Result: 7.1
